The reported numbers originate from patent US20220332795A1.

molecular target: T1, recombinant biotinylated human CD71 extracellular domain (human, UniProt P02786 89-760, biotinylated); assay: solution ELISA, signal ratio to HSA
T1 construct: extracellular domain; also called hCD71; huCD71 ECD
T1 sequence (P02786 other isoform, or with tags, fused parts or gaps): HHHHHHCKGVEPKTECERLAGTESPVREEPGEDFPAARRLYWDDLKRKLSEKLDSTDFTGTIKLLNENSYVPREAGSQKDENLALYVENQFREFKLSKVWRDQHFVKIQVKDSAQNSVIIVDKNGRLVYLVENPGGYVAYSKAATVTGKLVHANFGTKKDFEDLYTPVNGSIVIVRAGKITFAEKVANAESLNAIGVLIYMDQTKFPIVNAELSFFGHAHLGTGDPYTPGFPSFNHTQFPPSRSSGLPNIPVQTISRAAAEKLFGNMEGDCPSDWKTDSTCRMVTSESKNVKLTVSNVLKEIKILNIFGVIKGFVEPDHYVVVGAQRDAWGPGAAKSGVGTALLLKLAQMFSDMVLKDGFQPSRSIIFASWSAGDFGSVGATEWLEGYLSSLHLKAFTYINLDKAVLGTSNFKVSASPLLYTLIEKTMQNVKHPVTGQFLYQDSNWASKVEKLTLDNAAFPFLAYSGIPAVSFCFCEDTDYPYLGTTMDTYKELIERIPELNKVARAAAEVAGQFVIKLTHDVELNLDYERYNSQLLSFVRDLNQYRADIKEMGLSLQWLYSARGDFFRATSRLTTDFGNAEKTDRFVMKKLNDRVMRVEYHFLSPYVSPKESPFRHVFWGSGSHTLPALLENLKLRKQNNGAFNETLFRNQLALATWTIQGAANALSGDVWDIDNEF
QUANTITY_NAME: hCD71:HSA
Quick one: just the number, no unit, thanks!

Sample answers from the record:
SEQ ID NO 152 (designed binder, FN3 domain) MLPAPKNLVVSRVTEDSARLSWTAPDAAFDSFYIAYAEPRPDGEAITLDVPGSERSYDLTGLKPGTEYSVLIHGVKGGLLSSPLYAFFTT : 55.4
SEQ ID NO 112 (designed binder, FN3 domain) MLPAPKNLVVSRVTEDSARLSWTAPDAAFDSFYIAYAEPRPDGEAILLLVPGSERSYDLTGLKPGTEYSVLIHGVKGGLLSSPLSAIFTT : 413
SEQ ID NO 134 (designed binder, FN3 domain) MLPAPKNLVVSRVTEDSARLSWTAPDAAFDSFYIAYAEPRPDGEAIGLQVPGSERSYDLTGLKPGTEYSVLIHGVKGGLLSSPLSAIFTT : 36.7

Suppose we examine the binder SEQ ID NO 108 (designed binder, FN3 domain) MLPAPKNLVVSRVTEDSARLSWTAPDAAFDSFFIGYLEPQPPGEAIQLRVPGSERSYDLTGLKPGTEYNVTIQGVKGGFPSMPLSAIFTT ; what hCD71:HSA value has been reported?
69.6
